System: SARS-CoV-2 isolate USA-WI1/2020
PROCEDURE SUMMARY: Antiviral activity against live SARS-CoV-2 in UNCN1T cells
Assay type: cell-based
CONDITION DETAILS: Severe acute respiratory syndrome coronavirus 2, read-out: IC50, inhibition of SARS-CoV-2 replication
MEASURE NAME: IC50 (nM)
I only need the number, in nM, no unit after it.

Ask: Specify IC50 for CN1C(=O)c2ccccc2[S+]([O-])c2cc([N+](=O)[O-])ccc2S1(=O)=O (stereo not shown) and stop.
Result: 670
